Recorded values, source patent US12391768B2.

system_name: TICA0159 IgG binding to biotinylated ticagrelor
protocol_summary: Second generation HTRF epitope competition assay
particulars: Fab; 16 nM TICA0159 IgG, 1 nM biotinylated ticagrelor
In this section, each of the molecules is paired with its reported IC50.
measure_name: IC50 (nM)

molecule: TICA0162: VH CDR3 variant of TICA0072; VH SEQ ID NO:52, VL SEQ ID NO:57 (antibody, listed as Homo sapiens, V domains shown) VH: QVQLQESGAEVKKPGSSVRVSCKASGGTFDSYSIHWVRQAPGQGLEWMGGIIPAFGTLSSAQDFQARVTISADKSTSTAYMELSGLRSEDTAVYYCARGSFDYYFWSASHPPNDALAIWGQGTLVTVSS VL: QSVVTQPPSVSAAPGQKVTISCSGSNSDIGNNYVSWYQQLPGTAPKLLIYDNNKRPSGIPDRFSGSKSGTSATLAITGLQAGDEADYYCGTWDISLSAGLFGGGTKVTVL
observed: 16.3
//
molecule: TICA0212: combination of TICA0162 and TICA0152; VH SEQ ID NO:72, VL SEQ ID NO:77 (antibody, listed as Homo sapiens, V domains shown) VH: QVQLQESGAEVKKPGSSVRVSCKASGGTFDSYSIHWVRQAPGQGLEWMGGIIPAFGTLSSAQDFQARVTISADKSTSTAYMELSGLRSEDTAVYYCARGSFDYYFWSASHPPNDALAIWGQGTLVTVSS VL: QSVVTQPPSVSAAPGQKVTISCSGSNSDIGNNYVSWYQQLPGTAPKLLIYDNNKRPSGIPDRFSGSKSGTSATLAITGLQAGDEADYYCGTWLYDRAVGLFGGGTKVTVL
observed: 12
//
molecule: TICA0152: VL CDR3 variant of TICA0072; VH SEQ ID NO:62, VL SEQ ID NO:67 (antibody, listed as Homo sapiens, V domains shown) VH: QVQLQESGAEVKKPGSSVRVSCKASGGTFDSYSIHWVRQAPGQGLEWMGGIIPAFGTLSSAQDFQARVTISADKSTSTAYMELSGLRSEDTAVYYCARGSHLYDFWSASHPPNDALAIWGQGTLVTVSS VL: QSVVTQPPSVSAAPGQKVTISCSGSNSDIGNNYVSWYQQLPGTAPKLLIYDNNKRPSGIPDRFSGSKSGTSATLAITGLQAGDEADYYCGTWLYDRAVGLFGGGTKVTVL
observed: 73.5
//
molecule: TICA0072: parent anti-ticagrelor/TAM antibody; VH SEQ ID NO:32, VL SEQ ID NO:37 (antibody, listed as Homo sapiens, V domains shown) VH: QVQLQESGAEVKKPGSSVRVSCKASGGTFDSYSIHWVRQAPGQGLEWMGGIIPAFGTLSSAQDFQARVTISADKSTSTAYMELSGLRSEDTAVYYCARGSHLYDFWSASHPPNDALAIWGQGTLVTVSS VL: QSVVTQPPSVSAAPGQKVTISCSGSNSDIGNNYVSWYQQLPGTAPKLLIYDNNKRPSGIPDRFSGSKSGTSATLAITGLQAGDEADYYCGTWDISLSAGLFGGGTKVTVL
observed: 1710
